These data points were gathered from patent US20100061982A1.

- TEST PROTOCOL: CACO2 permeability a-b/b-a
- Assay type: in vitro ADME
- EXPERIMENTAL SETUP: human, Caco-2; b − a (second value of cell); read-out: CACO2 Pe b − a
VALUE KIND: Papp B→A (×10⁻⁶ cm/s)
Lab book: enter the figure in ×10⁻⁶ cm/s, no units written.

Field: example entries. Status: answers known.
>>> df
                                   compound   unit_spec  observed_value
0  CN(C)C(=O)Oc1cc(OC(=O)N(C)C)c2c(c1)O/C(=C\c1cn(C)c3nccc(-c4ccccc4)c13)C2=O [Example 43]  ×10⁻⁶ cm/s               1
1  COc1ccc2[nH]c(-c3ccccc3)c(/C=C3\Oc4cc(OC(=O)N(C)C)cc(OC(=O)N(C)C)c4C3=O)c2c1 [Example 30]  ×10⁻⁶ cm/s            0.04

Query: Papp B→A; subject: COc1ccc2c(c1)c(/C=C1\Oc3cc(OC(=O)N(C)C)cc(OC(=O)N(C)C)c3C1=O)cn2CCCN(C)C [Example 8]
7.22

Dear colleague, I am looking for the recorded Papp B→A of the following compound: COc1ccc2c(c1)c(/C=C1\Oc3cc(OC(=O)N(C(C)C)C(C)C)cc(OC(=O)N(C(C)C)C(C)C)c3C1=O)cn2CCCN(C)C [Example 4]
0.06

###

- TEST PROTOCOL: Microsome Stability (15 min), rat
- Format: in vitro ADME
- EXPERIMENTAL SETUP: microsomes, Phase I (NADPH), read-out: Microsome Stability (15 min) T ½ Phase I rat
VALUE KIND: half-life (min)
Use min as the unit, but write only the number.

Worked cases, answers included:
>>> print(df.to_string())
                                   compound  unit_spec  observed_value
0  COc1ccc2c(c1)c(/C=C1\Oc3cc(OC(=O)N(C(C)C)C(C)C)ccc3C1=O)c(C)n2CCN1CCN(C)CC1 [Example 47]        min              16
1  COc1ccc2[nH]c(-c3ccccc3)c(/C=C3\Oc4cc(OC(=O)N(C)C)ccc4C3=O)c2c1 [Example 18]        min              28

Next:
Which value of half-life has been reported for CNC(=O)Oc1ccc2c(c1)C(=O)/C(=C/c1cn(CCN3CCN(C)CC3)c3ccc(OC)cc13)O2 [Example 45] in the records?
9

###

In this section we review reported half-life values for a set of molecules.
- TEST PROTOCOL: Microsome Stability (15 min), rat
- Assay type: in vitro ADME
- EXPERIMENTAL SETUP: microsomes, Phase I (NADPH), read-out: Microsome Stability (15 min) T ½ Phase I rat
Provide the reading as a plain figure in min.

>>> print(df.to_string())
                           structure_string  unit_spec  observed_value
0  COc1ccc2c(c1)c(/C=C1\Oc3cc(OC(=O)c4ccccc4)cc(OC(=O)c4ccccc4)c3C1=O)cn2CCCN(C)C        min              12
1  COc1ccc2c(c1)c(/C=C1\Oc3cc(OC(=O)CC(C)C)cc(OC(=O)CC(C)C)c3C1=O)cn2CCCN(C)C        min               4
2  COc1ccc2[nH]c(-c3ccccc3)c(/C=C3\Oc4cc(OC(=O)C(C)(C)C)cc(OC(=O)C(C)(C)C)c4C3=O)c2c1        min              12
3  CCOP(=O)(OCC)Oc1ccc2c(c1)O/C(=C\c1c(-c3ccccc3)[nH]c3ccc(OC)cc13)C2=O        min              17

So what's the measured half-life for this one? COc1ccc2[nH]c(-c3ccccc3)c(/C=C3\Oc4cc(OC(=O)Oc5ccccc5)cc(OC(=O)Oc5ccccc5)c4C3=O)c2c1
8

###

- TEST PROTOCOL: physchem
- EXPERIMENTAL SETUP: pH 7.4, aqueous buffer
Entries annotated with measured solubility
A number alone suffices; assume µg/mL.

>>> df
                           structure_string  value_kind  observed_value
0  COc1ccc2[nH]c(-c3ccccc3)c(/C=C3\Oc4cc(OP(=O)(O)O)ccc4C3=O)c2c1  solubility              65

Proceed to the following item.
solubility lookup needed for COc1ccc2[nH]c(-c3ccccc3)c(/C=C3\Oc4cc(OC(=O)N(c5ccccc5)c5ccccc5)cc(OC(=O)N(c5ccccc5)c5ccccc5)c4C3=O)c2c1 , thanks.
1

###

- TEST PROTOCOL: CACO2 permeability a-b/b-a
- Format: in vitro ADME
- EXPERIMENTAL SETUP: human, Caco-2; b − a (second value of cell); read-out: CACO2 Pe b − a
Hi! Just check whether Papp B→A is below 7 ×10⁻⁶ cm/s. Below gives 1, equal or above gives -1.

                           structure_string  group_label
0  COc1ccc2c(c1)c(/C=C1\Oc3cc(OC(=O)N(C)C)cc(OC(=O)N(C)C)c3C1=O)c(C)n2CCN1CCN(C)CC1            1
1  Cn1cc(/C=C2\Oc3cccc(O)c3C2=O)c2c(N3CC4CCC(C3)O4)ccnc21           -1
2  CN(C)C(=O)Oc1cc(OC(=O)N(C)C)c2c(c1)O/C(=C\c1cn(C)c3cccc(-c4ccccc4)c13)C2=O            1

# strict comparison: is reported Papp B→A < 7 ×10⁻⁶ cm/s? input = COc1ccc2[nH]c(-c3ccccc3)c(/C=C3\Oc4cc(O)ccc4C3=O)c2c1
1

In plain terms, does Cn1cc(/C=C2\Oc3cc(O)cc(O)c3C2=O)c2c(-c3ccccc3)ccnc21 come in under 7 ×10⁻⁶ cm/s for Papp B→A?
-1

# strict comparison: is reported Papp B→A < 7 ×10⁻⁶ cm/s? input = COc1ccc2c(c1)c(/C=C1\Oc3cc(O)cc(O)c3C1=O)cn2CCCN(C)C
-1

Regarding COc1ccc2c(c1)c(/C=C1\Oc3cc(OC(=O)N(C)c4ccccc4)cc(OC(=O)N(C)c4ccccc4)c3C1=O)cn2CCCN(C)C , kindly confirm whether its Papp B→A is beneath 7 ×10⁻⁶ cm/s.
1

# strict comparison: is reported Papp B→A < 7 ×10⁻⁶ cm/s? input = COc1ccc2[nH]c(-c3ccccc3)c(C=C3Oc4cc(O)cc(O)c4C3=O)c2c1
1

###

- MEASUREMENT TARGET: UniProt P42336
- Sequence (P42336 whole entry, species assumed): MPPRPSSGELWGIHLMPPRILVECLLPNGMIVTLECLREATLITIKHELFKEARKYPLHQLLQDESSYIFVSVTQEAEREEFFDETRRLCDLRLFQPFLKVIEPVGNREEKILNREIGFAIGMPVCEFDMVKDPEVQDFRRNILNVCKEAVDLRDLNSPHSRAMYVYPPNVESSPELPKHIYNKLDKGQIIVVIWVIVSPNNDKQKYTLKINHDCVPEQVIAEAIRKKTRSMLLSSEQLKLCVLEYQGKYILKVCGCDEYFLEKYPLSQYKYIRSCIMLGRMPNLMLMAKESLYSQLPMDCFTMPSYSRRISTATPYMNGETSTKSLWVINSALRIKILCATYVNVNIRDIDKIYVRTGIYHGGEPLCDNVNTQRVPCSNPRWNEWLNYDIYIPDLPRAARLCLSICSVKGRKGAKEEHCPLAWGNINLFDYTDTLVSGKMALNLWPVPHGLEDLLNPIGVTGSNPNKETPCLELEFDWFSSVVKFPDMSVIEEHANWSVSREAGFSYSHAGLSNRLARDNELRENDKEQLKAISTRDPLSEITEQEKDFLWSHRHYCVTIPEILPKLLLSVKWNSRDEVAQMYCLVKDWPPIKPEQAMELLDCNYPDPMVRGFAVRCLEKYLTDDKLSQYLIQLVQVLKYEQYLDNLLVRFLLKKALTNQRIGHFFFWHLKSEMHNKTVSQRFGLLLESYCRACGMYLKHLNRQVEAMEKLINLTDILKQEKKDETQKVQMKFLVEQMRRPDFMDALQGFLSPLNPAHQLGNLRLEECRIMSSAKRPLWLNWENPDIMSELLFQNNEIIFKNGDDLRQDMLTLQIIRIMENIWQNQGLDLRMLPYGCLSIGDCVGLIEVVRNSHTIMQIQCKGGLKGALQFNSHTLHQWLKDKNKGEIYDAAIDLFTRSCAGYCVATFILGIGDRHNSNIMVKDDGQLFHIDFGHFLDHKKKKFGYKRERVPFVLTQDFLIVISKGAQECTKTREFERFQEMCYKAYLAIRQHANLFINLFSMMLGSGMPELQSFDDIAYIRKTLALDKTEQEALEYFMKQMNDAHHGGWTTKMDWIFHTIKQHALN
- Sequence (P27986 whole entry partner, species assumed): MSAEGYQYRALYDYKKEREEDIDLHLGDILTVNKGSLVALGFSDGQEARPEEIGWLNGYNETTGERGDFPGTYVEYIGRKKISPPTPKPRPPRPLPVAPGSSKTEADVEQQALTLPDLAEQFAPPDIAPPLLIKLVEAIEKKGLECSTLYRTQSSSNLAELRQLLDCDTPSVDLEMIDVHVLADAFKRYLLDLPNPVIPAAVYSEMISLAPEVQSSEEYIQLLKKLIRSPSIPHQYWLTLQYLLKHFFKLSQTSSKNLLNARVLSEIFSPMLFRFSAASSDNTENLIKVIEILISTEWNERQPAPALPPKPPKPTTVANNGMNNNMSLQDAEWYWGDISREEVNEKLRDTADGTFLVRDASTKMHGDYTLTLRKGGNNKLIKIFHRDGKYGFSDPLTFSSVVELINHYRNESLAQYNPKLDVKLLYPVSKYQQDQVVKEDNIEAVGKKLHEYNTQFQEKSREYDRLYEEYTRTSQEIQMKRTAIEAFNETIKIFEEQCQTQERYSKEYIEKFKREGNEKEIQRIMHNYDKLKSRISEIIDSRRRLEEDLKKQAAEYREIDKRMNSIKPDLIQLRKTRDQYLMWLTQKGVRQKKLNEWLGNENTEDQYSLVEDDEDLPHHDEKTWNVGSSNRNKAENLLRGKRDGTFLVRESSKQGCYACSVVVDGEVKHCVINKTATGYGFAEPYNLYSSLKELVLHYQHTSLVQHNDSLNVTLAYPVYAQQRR
- TEST PROTOCOL: PI3K-alpha Fluorescence Polarization Assay
- Type: biochemical
Form field: IC50 (one value per entry).
Write it as a number; the unit µM goes unstated.

>>> print(df.to_string())
                           structure_string  value_kind  observed_value
0  COc1ccc2[nH]c(-c3ccccc3)c(/C=C3\Oc4cc(OC(=O)N(C)C)ccc4C3=O)c2c1        IC50            6.35

Record request: IC50 value, item CN(C)C(=O)Oc1cccc2c1C(=O)/C(=C/c1cn(C)c3nccc(N4CC5CCC(C4)O5)c13)O2
2.49

Look up IC50: COc1ccc2c(c1)c(/C=C1\Oc3cc(OC(=O)N(C)C)cc(O)c3C1=O)cn2CCCN(C)C
2.8

###

- TEST PROTOCOL: Microsome Stability (15 min), nude mouse
- Assay type: in vitro ADME
- EXPERIMENTAL SETUP: microsomes, Phase I (NADPH), read-out: Microsome Stability (15 min) T ½ Phase I nude mouse
VALUE KIND: half-life

Known results for molecules:
                           structure_string  value_kind  observed_value
0  COc1ccc2c(c1)c(/C=C1\Oc3cc(OC(=O)N(c4ccccc4)c4ccccc4)cc(OC(=O)N(c4ccccc4)c4ccccc4)c3C1=O)cn2CCCN(C)C   half-life        > 30 min
1  COc1ccc2c(c1)c(/C=C1\Oc3cc(OC(=O)N(C(C)C)C(C)C)cc(OC(=O)N(C(C)C)C(C)C)c3C1=O)c(C)n2CCN1CCN(C)CC1   half-life          24 min

Could you now look at the following molecule, please?
I am curious: what half-life value has been reported for CCOP(=O)(OCC)Oc1ccc2c(c1)O/C(=C\c1c(-c3ccccc3)[nH]c3ccc(OC)cc13)C2=O ?
> 30 min

###

Collected Buffer Stability (37° C.) % Remaining (at 16-23 hours) SGF values appear next to each entry.
- TEST PROTOCOL: Buffer Stability (37° C.)
- EXPERIMENTAL SETUP: SGF
Give the value in % but do not write % after it.

Please review the following examples before continuing.
                           structure_string  observed_value
0  COc1ccc2c(c1)c(/C=C1\Oc3cc(OC(=O)N(C(C)C)C(C)C)ccc3C1=O)c(C)n2CCN1CCN(C)CC1              98
1  COc1ccc2c(c1)c(/C=C1\Oc3cc(OC(=O)N(C)C)cc(OC(=O)N(C)C)c3C1=O)c(C)n2CCN1CCN(C)CC1             100
2  COc1ccc2[nH]c(-c3ccccc3)c(/C=C3\Oc4cc(OC(=O)Oc5ccccc5)cc(OC(=O)Oc5ccccc5)c4C3=O)c2c1               0

Next compound, please.
Item COC(=O)Oc1cc(OC(=O)OC)c2c(c1)O/C(=C\c1c(-c3ccccc3)[nH]c3ccc(OC)cc13)C2=O has what recorded Buffer Stability (37° C.) % Remaining (at 16-23 hours) SGF?
87
